pIC50: −log10 of the molar value.
pIC50, Dipeptidyl peptidase 4 (Homo sapiens, UniProt P27487), per-entry values.

input: Fill blank: measured pIC50 of the molecule N[C@@H](CC(=O)O)C(=O)N1CCCC1P(=O)(Oc1ccccc1)Oc1ccccc1 (some centres undefined) is ____.
output: < 3.00

---

target: Dipeptidyl peptidase 4 (Homo sapiens)
Sequence (P27487 whole entry): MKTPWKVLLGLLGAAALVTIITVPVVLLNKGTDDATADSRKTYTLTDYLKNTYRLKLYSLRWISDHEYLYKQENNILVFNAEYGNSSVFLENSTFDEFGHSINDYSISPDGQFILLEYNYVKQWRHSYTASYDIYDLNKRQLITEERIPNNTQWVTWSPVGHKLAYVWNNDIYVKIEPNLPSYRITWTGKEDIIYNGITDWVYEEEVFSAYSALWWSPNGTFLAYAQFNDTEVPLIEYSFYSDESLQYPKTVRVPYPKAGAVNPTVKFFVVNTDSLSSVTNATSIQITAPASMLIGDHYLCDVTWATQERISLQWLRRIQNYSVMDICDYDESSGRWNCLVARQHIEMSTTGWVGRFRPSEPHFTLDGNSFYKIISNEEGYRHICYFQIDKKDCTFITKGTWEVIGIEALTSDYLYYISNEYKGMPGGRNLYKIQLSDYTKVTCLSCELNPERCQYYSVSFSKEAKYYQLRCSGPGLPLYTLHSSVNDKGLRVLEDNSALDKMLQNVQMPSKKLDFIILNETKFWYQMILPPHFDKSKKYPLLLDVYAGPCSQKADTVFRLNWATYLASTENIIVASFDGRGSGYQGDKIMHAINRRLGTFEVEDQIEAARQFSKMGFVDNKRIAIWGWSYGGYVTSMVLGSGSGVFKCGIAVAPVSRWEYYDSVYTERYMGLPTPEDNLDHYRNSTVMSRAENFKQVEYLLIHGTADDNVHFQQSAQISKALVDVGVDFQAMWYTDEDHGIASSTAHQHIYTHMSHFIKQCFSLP
# maps each entry to its IC50

Some solved cases for reference:
C[C@H](N)C(=O)N1CCCC1P(=O)(Oc1ccccc1)Oc1ccccc1 (stereo not given in full)	> 1000 µM
CC(NC(=O)[C@@H](N)Cc1ccccc1)P(=O)(Oc1ccccc1)Oc1ccccc1 (stereo not given in full)	> 500 µM
O=C(CNC1CCCC1)NC(C1CCCCC1)P(=O)(Oc1ccccc1)Oc1ccccc1 (stereo not given)	> 125 µM
CCCC(NC(=O)[C@@H](N)CC1CCCCC1)P(=O)(Oc1ccccc1)Oc1ccccc1 (stereo not given in full)	> 250 µM
CCC(C)[C@H](N)C(=O)NC(C)P(=O)(Oc1ccccc1)Oc1ccccc1 (stereo not given in full)	> 500 µM
CCC(NC(=O)[C@@H](N)CC1CCCCC1)P(=O)(Oc1ccccc1)Oc1ccccc1 (stereo not given in full)	> 1000 µM
CCCC(NC(=O)[C@@H](N)CCCCN)P(=O)(Oc1ccccc1)Oc1ccccc1 (stereo not given in full)	> 1000 µM
CC(NC(=O)[C@@H](N)Cc1ccc(O)cc1)P(=O)(Oc1ccccc1)Oc1ccccc1 (stereo not given in full)	> 500 µM
CCC(C)[C@H](N)C(=O)NC(CC)P(=O)(Oc1ccccc1)Oc1ccccc1 (stereo not given in full)	> 1000 µM
CCCC(NC(=O)[C@@H](N)C(C)CC)P(=O)(Oc1ccccc1)Oc1ccccc1 (stereo not given in full)	> 1000 µM

input: Fill blank: measured IC50 of the compound CC(C)C[C@H](N)C(=O)NC(C)P(=O)(Oc1ccccc1)Oc1ccccc1 (stereo not given in full) is ____.
output: > 1000 µM

input: Fill blank: measured IC50 of the compound CCC(C)[C@H](N)C(=O)NC(C1CCCCC1)P(=O)(Oc1ccccc1)Oc1ccccc1 (stereo not given in full) is ____.
output: > 1000 µM

input: Fill blank: measured IC50 of the compound CC(NC(=O)[C@@H](N)CO)P(=O)(Oc1ccccc1)Oc1ccccc1 (stereo not given in full) is ____.
output: > 500 µM

input: Fill blank: measured IC50 of the compound O=C(CNC1CCCC1)NC(c1ccccc1)P(=O)(Oc1ccccc1)Oc1ccccc1 (stereo not given) is ____.
output: > 125 µM

input: Fill blank: measured IC50 of the compound CCC(C)[C@H](N)C(=O)NC(c1ccc(C#N)cc1)P(=O)(Oc1ccccc1)Oc1ccccc1 (stereo not given in full) is ____.
output: > 250 µM

input: Fill blank: measured IC50 of the compound CCC(CC)C(NC(=O)[C@@H](N)C(C)CC)P(=O)(Oc1ccccc1)Oc1ccccc1 (stereo not given in full) is ____.
output: > 1000 µM

input: Fill blank: measured IC50 of the compound CCC(C)[C@H](N)C(=O)NC(C(C)C)P(=O)(Oc1ccccc1)Oc1ccccc1 (stereo not given in full) is ____.
output: > 1000 µM

---

target: Dipeptidyl peptidase 2 (Homo sapiens, UniProt Q9UHL4)
# maps each entry to its pIC50
// pIC50 is dimensionless: -log10 of concentration (M)

Some solved cases for reference:
CCC(NC(=O)[C@@H](N)CC1CCCCC1)P(=O)(Oc1ccccc1)Oc1ccccc1 (stereo partly specified)	4.21
CCC(C)[C@H](N)C(=O)NC(c1ccccc1)P(=O)(Oc1ccccc1)Oc1ccccc1 (stereo partly specified)	4.74
CC(NC(=O)[C@@H](N)CC1CCCCC1)P(=O)(Oc1ccccc1)Oc1ccccc1 (stereo partly specified)	4.33
CCC(C)[C@H](N)C(=O)NC(c1ccc(C#N)cc1)P(=O)(Oc1ccccc1)Oc1ccccc1 (stereo partly specified)	3.82
O=C(CNC1CCCC1)NC(c1ccccc1)P(=O)(Oc1ccccc1)Oc1ccccc1 (stereo unspecified)	5.42
CCC(C)[C@H](N)C(=O)NC(c1cccc(C#N)c1)P(=O)(Oc1ccccc1)Oc1ccccc1 (stereo partly specified)	3.29
CC(NC(=O)[C@@H](N)CC(N)=O)P(=O)(Oc1ccccc1)Oc1ccccc1 (stereo partly specified)	3.54
CCC(C)[C@H](N)C(=O)NC(C1CCCCC1)P(=O)(Oc1ccccc1)Oc1ccccc1 (stereo partly specified)	3.83

input: Recorded pIC50 for O=C(CNC1CCCC1)NC(C1CCCCC1)P(=O)(Oc1ccccc1)Oc1ccccc1 (stereo unspecified) with Dipeptidyl peptidase 2 (Homo sapiens, UniProt Q9UHL4), please?
output: 5.10

input: Recorded pIC50 for CCC(C)[C@H](N)C(=O)NC(CC(C)C)P(=O)(Oc1ccccc1)Oc1ccccc1 (stereo partly specified) with Dipeptidyl peptidase 2 (Homo sapiens, UniProt Q9UHL4), please?
output: 3.54

input: Recorded pIC50 for N[C@@H](CC1CCCCC1)C(=O)NC(C1CCCCC1)P(=O)(Oc1ccccc1)Oc1ccccc1 (stereo partly specified) with Dipeptidyl peptidase 2 (Homo sapiens, UniProt Q9UHL4), please?
output: 4.52

input: Recorded pIC50 for N[C@@H](Cc1cnc[nH]1)C(=O)NC(C1CCCCC1)P(=O)(Oc1ccccc1)Oc1ccccc1 (stereo partly specified) with Dipeptidyl peptidase 2 (Homo sapiens, UniProt Q9UHL4), please?
output: 3.62

input: Recorded pIC50 for CCCC(NC(=O)[C@@H](N)C(C)CC)P(=O)(Oc1ccccc1)Oc1ccccc1 (stereo partly specified) with Dipeptidyl peptidase 2 (Homo sapiens, UniProt Q9UHL4), please?
output: 3.00

input: Recorded pIC50 for CCC(C)[C@H](N)C(=O)NC(C)P(=O)(Oc1ccccc1)Oc1ccccc1 (stereo partly specified) with Dipeptidyl peptidase 2 (Homo sapiens, UniProt Q9UHL4), please?
output: 3.94

input: Recorded pIC50 for CCCC(NC(=O)[C@@H](N)CC1CCCCC1)P(=O)(Oc1ccccc1)Oc1ccccc1 (stereo partly specified) with Dipeptidyl peptidase 2 (Homo sapiens, UniProt Q9UHL4), please?
output: 3.30
